Each recorded value in this set is attributed to patent US20250136578A1.

Reported values of IC50 for individual entries
tested on: VCaP cells; assay: VCaP growth inhibition assay (CTG); format: cell-based; details: Homo sapiens, 216 h, 30 pM R1881, 9 days

In the examples that follow, each entry is paired with its recorded IC50.
CC(=O)N1CCc2c(c(N3CCCc4cc(-c5cnn(C)c5)c(C)cc43)nn2C2CCN(C(=O)C3CCN(c4ccc(C(=O)N[C@H]5CC[C@H](Oc6ccc(C#N)c(Cl)c6)CC5)nn4)CC3)CC2)C1; ≤ 100 pM
CC(=O)N1CCc2c(c(N3CCCc4cc(-c5cnn(C)c5)c(C(F)F)cc43)nn2C2CCN(C3CCC(C#Cc4ccc(C(=O)N[C@H]5CC[C@H](Oc6ccc(C#N)c(Cl)c6)CC5)nn4)CC3)CC2)C1 (stereo partly drawn); ≤ 100 pM
CC(=O)N1CCc2c(c(-c3cccc4cc(-c5cnn(CCC6CCN(c7ccc(C(=O)N[C@H]8CC[C@H](Oc9ccc(C#N)c(Cl)c9)CC8)nn7)CC6)c5)ncc34)nn2C2CCC2)C1; 100 to 1000 pM
CC(=O)N1CCc2c(c(-c3cccc4cc(-c5cnn(CCOC6CCN(c7ccc(C(=O)N[C@H]8CC[C@H](Oc9ccc(C#N)c(Cl)c9)CC8)nn7)CC6)c5)ncc34)nn2C)C1; ≤ 100 pM
CC(=O)N1CCc2c(c(N3CCCc4cc(-c5cnn(C)c5)c(C(F)F)cc43)nn2C2CCN(C[C@H]3CCN(c4ccc(C(=O)N[C@H]5CC[C@H](Oc6ccc(C#N)c(Cl)c6)CC5)nn4)C[C@H]3C)CC2)C1; ≤ 100 pM

response.value for `CC(=O)N1CCc2c(c(N3CCCc4cc(-c5cnn(C)c5)c(C(F)F)cc43)nn2C2CCN(CC3CCN(c4ccc(C(=O)N[C@H]5CC[C@H](Oc6ccc(C#N)c(Cl)c6)CC5)cn4)CC3)CC2)C1` (field: IC50) = ≤ 100 pM

response.value for `CC(=O)N1CCc2c(c(N3CCCc4cc(-c5ccc(CCC6CCN(c7ccc(C(=O)N[C@H]8CC[C@H](Oc9ccc(C#N)c(Cl)c9)CC8)nn7)CC6)cc5)ncc43)nn2C2CCOCC2)C1` (field: IC50) = 1000 to 100000 pM

response.value for CC(=O)N1CCc2c(c(N3CCCc4cc(-c5cnn(C)c5)c(C(F)F)cc43)nn2C2CCN(C3CCC4(CC3)CC(Oc3ccc(C(=O)N[C@H]5CC[C@H](Oc6ccc(C#N)c(Cl)c6)CC5)nn3)C4)CC2)C1 (stereo partly drawn) (field: IC50) = ≤ 100 pM

response.value for `CC(=O)N1CCc2c(c(N3CCCc4cc(-c5cnn(C)c5)c(C(F)F)cc43)nn2C2CCN(C(=O)COC3CCN(c4ccc(C(=O)N[C@H]5CC[C@H](N(C)c6ccc(C#N)c(Cl)c6)CC5)cc4)CC3)CC2)C1` (field: IC50) = ≤ 100 pM

response.value for `CC(=O)N1CCc2c(c(N3CCCc4cc(-c5cnn(C)c5)c(C(F)F)cc43)nn2[C@H]2CC[C@@]3(CCN(C4CN(c5ccc(C(=O)N[C@H]6CC[C@H](Oc7ccc(C#N)c(Cl)c7)CC6)nn5)C4)C3)CC2)C1` (field: IC50) = ≤ 100 pM

response.value for `CC(=O)N1CCc2c(c(-c3cccc4cc(-c5cnn(CCC6CC7(C6)CN(c6ccc(C(=O)N[C@H]8CC[C@H](Oc9ccc(C#N)c(Cl)c9)CC8)nn6)C7)c5)ncc34)nn2C2CCOCC2)C1` (field: IC50) = 100 to 1000 pM

response.value for `CC(=O)N1CCc2c(c(-c3cccc4cc(-c5cnn(C)c5)ncc34)nn2C2CCN(CC3CCN(c4ccc(C(=O)N[C@H]5CC[C@H](Oc6ccc(C#N)c(Cl)c6)CC5)cc4)CC3)CC2)C1` (field: IC50) = 100 to 1000 pM

response.value for CC(=O)N1CCc2c(c(N3CCCc4cc(-c5cnn(C)c5)c(C)cc43)nn2C2CCN(CC3CCN(c4ccc(C(=O)N[C@H]5CC[C@H](Oc6ccc(C#N)c(Cl)c6)CC5)nn4)CC3(C)C)CC2)C1 (stereo partly drawn) (field: IC50) = 100 to 1000 pM

response.value for `CC(=O)N1CCc2c(c(N3CCCc4cc(-c5ccc(N6CC(N7CCN(c8ccc(C(=O)N[C@H]9CC[C@H](Oc%10ccc(C#N)c(Cl)c%10)CC9)nn8)CC7)C6)nc5)c(C(F)F)cc43)nn2C2CCOCC2)C1` (field: IC50) = ≤ 100 pM

response.value for `CC(=O)N1CCc2c(c(-c3cccc4cc(-c5ccc(CCC6CCN(c7ccc(C(=O)N[C@H]8CC[C@H](Oc9ccc(C#N)c(Cl)c9)CC8)nn7)CC6)nc5)ncc34)nn2C2CCOCC2)C1` (field: IC50) = ≤ 100 pM

response.value for `CC(=O)N1CCc2c(c(N3CCCc4cc(C#N)ncc43)nn2C2CCN(CC3CCN(c4ccc(C(=O)N[C@H]5CC[C@H](Oc6ccc(C#N)c(Cl)c6)CC5)nn4)CC3)CC2)C1` (field: IC50) = ≤ 100 pM

response.value for CC(=O)N1CCc2c(c(-c3cccc4cc(-c5cnn(C)c5)ncc34)nn2C2CCN(CC3CCN(c4ccc(C(=O)N[C@H]5CC[C@H](Oc6ccc(C#N)c(Cl)c6)CC5)nn4)CC3(C)C)CC2)C1 (stereo partly drawn) (field: IC50) = ≤ 100 pM

response.value for CC(=O)N1CCc2c(c(N3CCCc4cc(-c5cnn(C)c5)c(C(F)F)cc43)nn2C2CCN(CC3CCN(c4ccc(C(=O)N[C@H]5CC[C@H](Oc6ccc(C#N)c(Cl)c6)CC5)nn4)CC34CC4)CC2)C1 (stereo partly drawn) (field: IC50) = ≤ 100 pM
